Hi there, I'd appreciate the recorded Cmax for every entry that follows.
- experimental details: Brain pharmacokinetics (unbound, lateral ventricle) by microdialysis after i.v. dose of alkaloid fraction
- Type: in vivo, rats
- setup conditions: Sprague-Dawley, brain lateral ventricle microdialysate (unbound), iv; rat brain lateral ventricle, unbound, i.v. alkaloid fraction 20 mg/kg, mean ± SD, n = 6

{"compound": "COc1cc2c3c(c1OC)-c1ccccc1C[C@H]3N(C)CC2", "Cmax": "320 ng/mL"}

Let us examine a further case.
# input compound: COc1cc2c3c(c1OC)-c1ccccc1CC3NCC2 (centres unmarked) ; wanted: its Cmax
160 ng/mL

---

Hi there, I'd appreciate the recorded Cmax for every entry that follows.
- experimental details: Plasma pharmacokinetics after single oral dose of lotus leaf alkaloid fraction
- Assay type: in vivo, SD rats
- setup conditions: male; rat plasma, oral alkaloid fraction 50 mg/kg, mean ± SD, n = 5

{"molecule": "COc1cc2c3c(c1OC)-c1ccccc1CC3NCC2 (centres unmarked) [N-NF, N-nornuciferine]", "Cmax": "570 ng/mL"}

Let us examine a further case.
# input molecule: COc1cc2c3c(c1OC)-c1ccccc1C[C@H]3N(C)CC2 [NF, nuciferine] ; wanted: its Cmax
1710 ng/mL
